biological target: T1, KIR3DL2 recombinant protein (R&D Systems) (human, UniProt P43630 28-340); assay: SCK kinetic method
T1 construct: Bought protein; also called rec KIR3DL2; recombinant KIR3DL2-Fc fusion protein; not shown: Fc part of the bought fusion protein; not described
T1 sequence (P43630 28-340 A108T): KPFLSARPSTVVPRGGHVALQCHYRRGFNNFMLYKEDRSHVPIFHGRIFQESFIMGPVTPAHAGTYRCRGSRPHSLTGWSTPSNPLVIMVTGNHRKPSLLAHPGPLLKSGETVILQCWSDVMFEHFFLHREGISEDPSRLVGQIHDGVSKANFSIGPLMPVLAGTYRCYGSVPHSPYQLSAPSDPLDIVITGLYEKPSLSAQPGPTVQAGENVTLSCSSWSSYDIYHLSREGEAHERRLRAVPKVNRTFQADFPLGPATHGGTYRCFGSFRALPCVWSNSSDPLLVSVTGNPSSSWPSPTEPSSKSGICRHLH
Hi there, I'd appreciate the recorded Kd for every entry that follows.
Report as a plain number; the unit nM is understood.

Incoming: Value lookup for Kd; key = Hum32-K32-15C11 (antibody, V domains shown, also called H3/L2) VH: EVQLVESGGGLVQPGGSLRLSCAASGFTFSDAWMDWVRQAPGKGLEWVAEIRSKANNHATYYAASVKGRFTISRDDSKNSVYLQMNSLKTEDTAVYYCTGGYYPVYWGQGTLVTVSS VL: DIQMTQSPSSLSASVGDRVTITCKASQDINKNIAWYQHKPGKAPKLLIHYTSTLQPGVPSRFSGSGSGTDFTFTISSLQPEDIATYYCLQYDNLLTFGGGTKVEIK
Outgoing: 0.51

Incoming: Value lookup for Kd; key = Hum12-K32-15C11 (antibody, V domains shown, also called H1/L2; H1-L2) VH: EVQLVESGGGLVQPGGSLRLSCAASGFTFSDAWMDWVRQAPGKGLEWVGRIRSKANNHATAYAASVKGRFTISRDDSKNSLYLQMNSLKTEDTAVYYCTGGYYPVYWGQGTLVTVSS VL: DIQMTQSPSSLSASVGDRVTITCKASQDINKNIAWYQHKPGKAPKLLIHYTSTLQPGVPSRFSGSGSGTDFTFTISSLQPEDIATYYCLQYDNLLTFGGGTKVEIK
Outgoing: 1.63

Incoming: Value lookup for Kd; key = Hum23-K32-15C11 (antibody, V domains shown, also called H2/L3) VH: EVQLVESGGGLVQPGGSLRLSCAASGFTFSDAWMDWVRQAPGKGLEWVGEIRSKANNHATYYAASVKGRFTISRDDSKNSLYLQMNSLKTEDTAVYYCTGGYYPVYWGQGTLVTVSS VL: DIQMTQSPSSLSASVGDRVTITCKASQDINKNIAWYQHKPGKAPKLLIHYTSTLQPGVPSRFSGSGSGRDYTFTISSLQPEDIATYYCLQYDNLLTFGGGTKVEIK
Outgoing: 0.5
